- Test system: Salmonella enterica serovar Typhimurium SL1344
- MEASUREMENT PROTOCOL: normalized growth (OD600, IQM-normalized) in LPM (fraction of plate interquartile mean); higher = more bacterial growth (less inhibition)
- CONDITIONS: LPM pH 5.8; 10 µM; 16 h
The full ranking holds about 1,600 compounds; the median of “normalized growth (OD600, IQM-normalized) in LPM” is about 1, and the lowest 2% start at about 0.014. The sample as a whole holds a higher share of the lowest values than the screen did.
In this section, each of the compounds is paired with its reported normalized growth.
QUANTITY NAME: normalized growth

INSERT INTO results (compound, measured) VALUES
  ('CC1(C)[C@H]2CC[C@]1(CS(=O)(=O)O)C(=O)C2=Cc1ccc(C=C2C(=O)[C@@]3(CS(=O)(=O)O)CC[C@@H]2C3(C)C)cc1', 0.989),
  ('C=C(NC(=O)C(=C)NC(=O)c1csc(C2=N[C@@H]3c4csc(n4)[C@H]4NC(=O)c5csc(n5)[C@H]([C@](C)(O)[C@@H](C)O)NC(=O)[C@H]5CSC(=N5)/C(=C/C)NC(=O)[C@H]([C@@H](C)O)NC(=O)c5csc(n5)[C@]3(CC2)NC(=O)[C@H](C)NC(=O)C(=C)NC(=O)[C@H](C)NC(=O)[C@H]([C@@H](C)CC)N[C@@H]2C=Cc3c([C@H](C)O)cc(nc3[C@H]2O)C(=O)O[C@@H]4C)n1)C(N)=O', 1),
  ('CC(=O)Nc1cccc(O)c1', 1.02),
  ('CC(=O)N[C@@H]([C@@H](O)[C@H](O)[C@H](O)CO)[C@@H](O)CC(=O)C(=O)O', 1),
  ('CCCc1nc(C(C)(C)O)c(C(=O)OCc2oc(=O)oc2C)n1Cc1ccc(-c2ccccc2-c2nnn[nH]2)cc1', 1),
  ('CCOC(=O)O[C@]1(C(=O)COC(=O)CC)CC[C@H]2[C@@H]3CCC4=CC(=O)C=C[C@]4(C)[C@H]3[C@@H](O)C[C@@]21C', 1),
  ('CCCCC(O)c1ccccc1 (centres undefined)', 0.984),
  ('CCOC(=O)COc1ccc2c(=O)cc(-c3ccccc3)oc2c1', 1.01),
  ('CC(C)(O)c1ccccc1CC[C@@H](SCC1(CC(=O)O)CC1)c1cccc(/C=C/c2ccc3ccc(Cl)cc3n2)c1', 1);
